Listed below: Km values for each entry.
substrate: Cc1cc(=O)oc2c(F)c(OP(=O)(O)O)c(F)cc12; test: purified protein, by the assay type; set-up: DiFMUP hydrolysis by purified PTPs, fluorescence Ex355/Em460, initial rates over 10 min; Michaelis-Menten and Lineweaver-Burk Km

- protein: "DUSP14 (Homo sapiens) (protein) MSSRGHSTLPRTLMAPRMISEGDIGGIAQITSSLFLGRGSVASNRHLLQARGITCIVNATIEIPNFNWPQFEYVKVPLADMPHAPIGLYFDTVADKIHSVSRKHGATLVHCAAGVSRSATLCIAYLMKFHNVCLLEAYNWVKARRPVIRPNVGFWRQLIDYERQLFGKSTVKMVQTPYGIVPDVYEKESRHLMPYWGI"
  Km [µM]: 55.0
- protein: "DUSP22 (Homo sapiens) (protein) MGNGMNKILPGLYIGNFKDARDAEQLSKNKVTHILSVHDSARPMLEGVKYLCIPAADSPSQNLTRHFKESIKFIHECRLRGESCLVHCLAGVSRSVTLVIAYIMTVTDFGWEDALHTVRAGRSCANPNVGFQRQLQEFEKHEVHQYRQWLKEEYGESPLQDAEEAKNILAAPGILKFWAFLRRL"
  Km [µM]: 13.0
- protein: "DUSP18 (Homo sapiens) (protein) MTAPSCAFPVQFRQPSVSGLSQITKSLYISNGVAANNKLMLSSNQITMVINVSVEVVNTLYEDIQYMQVPVADSPNSRLCDFFDPIADHIHSVEMKQGRTLLHCAAGVSRSAALCLAYLMKYHAMSLLDAHTWTKSCRPIIRPNSGFWEQLIHYEFQLFGKNTVHMVSSPVGMIPDIYEKEVRLMIPL"
  Km [µM]: 29.0
- protein: "DUSP15 (Homo sapiens) (protein) MTEGVLPGLYLGNFIDAKDLDQLGRNKITHIISIHESPQPLLQDITYLRIPVADTPEVPIKKHFKECINFIHCCRLNGGNCLVHCFAGISRSTTIVTAYVMTVTGLGWRDVLEAIKATRPIANPNPGFRQQLEEFGWASSQKGARHRTSKTSGAQCPPMTSATCLLAARVALLSAALVREATGRTAQRCRLSPRAAAERLLGPPPHVAAGWSPDPKYQICLCFGEEDPGPTQHPKEQLIMADVQVQLRPGSSSCTLSASTERPDGSSTPGNPDGITHLQCSCLHPKRAASSSCTR"
  Km [µM]: 9.1
- protein: "DUSP3 (Homo sapiens) (protein) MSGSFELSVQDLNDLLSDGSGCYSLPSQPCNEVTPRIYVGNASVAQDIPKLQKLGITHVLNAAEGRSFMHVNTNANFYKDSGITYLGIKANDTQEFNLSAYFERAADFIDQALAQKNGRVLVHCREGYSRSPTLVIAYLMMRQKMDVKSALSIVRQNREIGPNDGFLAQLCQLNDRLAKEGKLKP"
  Km [µM]: 100.0
- protein: "PTPN7 (Homo sapiens) (protein) MVQAHGGRSRAQPLTLSLGAAMTQPPPEKTPAKKHVRLQERRGSNVALMLDVRSLGAVEPICSVNTPREVTLHFLRTAGHPLTRWALQRQPPSPKQLEEEFLKIPSNFVSPEDLDIPGHASKDRYKTILPNPQSRVCLGRAQSQEDGDYINANYIRGYDGKEKVYIATQGPMPNTVSDFWEMVWQEEVSLIVMLTQLREGKEKCVHYWPTEEETYGPFQIRIQDMKECPEYTVRQLTIQYQEERRSVKHILFSAWPDHQTPESAGPLLRLVAEVEESPETAAHPGPIVVHCSAGIGRTGCFIATRIGCQQLKARGEVDILGIVCQLRLDRGGMIQTAEQYQFLHHTLALYAGQLPEEPSP"
  Km [µM]: 25.5
